Biological target: recombinant soluble homotrimeric HA of A/Hong Kong/2108/03 (H9N2) (Influenza A virus A/HK/2108/2003(H9N2))
Assay: HA microarray, BCC supernatant
Details: remark: other sources report otherwise
Measured parameter: Trimeric HA Binding: RLU (RLU)

Binder: TCN-523 (5248_A17) (antibody, V domains shown) VH: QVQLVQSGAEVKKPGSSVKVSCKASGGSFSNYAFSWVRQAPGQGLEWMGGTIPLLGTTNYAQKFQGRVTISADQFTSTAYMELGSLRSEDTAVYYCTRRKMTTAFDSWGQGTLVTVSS VL: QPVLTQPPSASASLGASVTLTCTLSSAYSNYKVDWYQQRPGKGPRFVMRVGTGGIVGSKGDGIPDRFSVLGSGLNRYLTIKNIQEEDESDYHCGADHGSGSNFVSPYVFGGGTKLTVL
Measured value: 189
